# TEST TARGET: T1, Rhesus GIPR (rhesus, UniProt F7E1R9 22-466)
# T1 sequence: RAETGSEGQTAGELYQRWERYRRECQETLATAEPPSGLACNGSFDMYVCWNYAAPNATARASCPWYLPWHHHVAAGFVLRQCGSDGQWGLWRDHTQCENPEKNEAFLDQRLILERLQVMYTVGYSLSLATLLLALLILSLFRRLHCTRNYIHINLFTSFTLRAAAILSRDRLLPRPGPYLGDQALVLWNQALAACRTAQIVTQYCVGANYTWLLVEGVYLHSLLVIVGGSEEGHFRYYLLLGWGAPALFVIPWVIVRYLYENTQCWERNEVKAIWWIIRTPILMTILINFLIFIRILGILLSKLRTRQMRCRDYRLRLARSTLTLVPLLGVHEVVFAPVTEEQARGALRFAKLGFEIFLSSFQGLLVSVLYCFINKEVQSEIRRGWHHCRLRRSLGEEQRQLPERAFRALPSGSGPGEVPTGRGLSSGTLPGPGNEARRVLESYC
# EXPERIMENT SUMMARY: cell-based or functional assay
Form field: Rhesus GIPR CAMP Assay (Conc. mAb @ 60% Inhibition in nM) (one value per entry).
ENDPOINT NAME: Rhesus GIPR CAMP Assay (Conc. mAb @ 60% Inhibition in nM)

BINDER	RESULT
6H1.006 (antibody, human IgG1, kappa, N297G, V domains shown) VH: QVQLVESGGGVVQPGRSLRLSCAASGFTFSYFGMHWVRQAPGKGLEWVAVIWYDGSNKYYADSVKGRFTISRDNSKNTLYLQMNSLRAEDTAVYYCARDGTIFGVLLGDYWGQGTLVTVSS VL: DIQMTQSPSSLSASIGDRVTITCRASQDIRDYLGWYQQKPGKAPKLLIYGASSLQSGVPSRFSGSGSGTEFTLTISSLQPEDFATYYCLQHNNYPFTFGPGTKVDIKR	0.47 nM
2G10_LC1.004 (antibody, human IgG1, kappa, N297G, V domains shown) VH: QVQLVESGGGVVQPGRSLRLSCAASGFTFSNYGMHWVRQAPGEGLEWVAAIWFDASDKYYADSVKGRFTISRDNSKNTLYLQMNSLRAEDTAVYYCARDQAIFGVVPDYWGQGTLVTVSS VL: EIVMTQSPATLSVSPGERATLSCRASQSVSSNLAWYQQKPGQAPRLLIYGAATRATGIPARFSGSGSGTEFTLTISSLQSEDFAVYYCQQYNNWPLTFGGGTKVEIKR	0.58 nM
12H11.007 (antibody, human IgG1, kappa, N297G, V domains shown) VH: QVPLVQSGAEVKKPGASVKVSCKASGYTFTGYYIHWVRQAPGQGLEWMGWISPNQGDTNYAQKFQDRVTMTRDTSISTAYMELSRLRSDDTAVYYCTREATIFGMLIVPFDYWGQGTLVTVSS VL: DIVMTQSPDSLSVSLGERATINCKSSQSVLSSSNNKNYLAWYQQKPGQPPNLLIYWTSTRDSGVPDRFSGSGSGTDFTLTINSLQAEDVAVYYCQQYYRTPWTFGQGTKVEIKR	0.56 nM

The reported numbers originate from patent US20250376529A1.
